viability, T/C listing for selected molecules.
# Test system: 653999-131-R-J2-PDC complex spheroids, growth % test/control
# assayOverview: Anticancer human tumor 653999-131-R-J2-PDC patient-derived lung adenocarcinoma cell line growth inhibition [AhR]
# setupConditions: second compound 10 µM; first compound 0.3 µM; stronger effect = lower value

molecule: Nc1ncn(C2CC(O)C(CO)S2)c(=O)n1 (stereo not drawn) + Cc1ccccc1N=Nc1ccc(NC(=O)c2ccnn2C)c(C)c1
viability, T/C: 103%
--
molecule: O=C(C=Cn1cnc(-c2cc(C(F)(F)F)cc(C(F)(F)F)c2)n1)NNc1cnccn1 + CC(CO)NC(=O)c1cc(-c2ccc(Cl)cc2)nn(-c2cnn(C)c2)c1=O
viability, T/C: 65.6%

Value lookup for viability, T/C; key = Nc1ncn(C2CC(O)C(CO)S2)c(=O)n1 (stereo not drawn) + Cc1cncc(-c2nc(NCCc3c[nH]c4ccccc34)c3ncn(C(C)C)c3n2)c1
52.7%

###

# Test system: 653999-131-R-J2-PDC complex spheroids, growth % test/control
# assayOverview: Anticancer human tumor 653999-131-R-J2-PDC cell line growth inhibition [AhR];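 further: spheroids exposed to agents for seven days; 100% = DMSO vehicle control viability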
# setupConditions: second compound 1 µM; first compound 0.03 µM; stronger effect = lower value
# viability, T/C per entry
Give the quantity in %, number only.

compound: O=C(C=Cn1cnc(-c2cc(C(F)(F)F)cc(C(F)(F)F)c2)n1)NNc1cnccn1 + Cc1ccccc1N=Nc1ccc(NC(=O)c2ccnn2C)c(C)c1
targetOrSystem: 653999-131-R-J2-PDC complex spheroids, growth % test/control
viability, T/C / %: 91.1
--
compound: CCc1c2c(nc3ccc(O)cc13)-c1cc3c(c(=O)n1C2)COC(=O)[C@]3(O)CC + Cc1ccccc1N=Nc1ccc(NC(=O)c2ccnn2C)c(C)c1
targetOrSystem: 653999-131-R-J2-PDC complex spheroids, growth % test/control
viability, T/C / %: 37.3
--
compound: O=C(C=Cn1cnc(-c2cc(C(F)(F)F)cc(C(F)(F)F)c2)n1)NNc1cnccn1 + Cc1cncc(-c2nc(NCCc3c[nH]c4ccccc34)c3ncn(C(C)C)c3n2)c1
targetOrSystem: 653999-131-R-J2-PDC complex spheroids, growth % test/control
viability, T/C / %: 77.8
--
compound: Nc1ncn(C2CC(O)C(CO)S2)c(=O)n1 (configuration not stated) + Cc1cncc(-c2nc(NCCc3c[nH]c4ccccc34)c3ncn(C(C)C)c3n2)c1
targetOrSystem: 653999-131-R-J2-PDC complex spheroids, growth % test/control
viability, T/C / %: 109
--
compound: CCN(c1cc(-c2ccc(CN3CCOCC3)cc2)cc(C(=O)NCc2c(C)cc(C)[nH]c2=O)c1C)C1CCOCC1 + CC(CO)NC(=O)c1cc(-c2ccc(Cl)cc2)nn(-c2cnn(C)c2)c1=O
targetOrSystem: 653999-131-R-J2-PDC complex spheroids, growth % test/control
viability, T/C / %: 134
--
compound: Nc1ncn(C2CC(O)C(CO)S2)c(=O)n1 (configuration not stated) + CC(CO)NC(=O)c1cc(-c2ccc(Cl)cc2)nn(-c2cnn(C)c2)c1=O
targetOrSystem: 653999-131-R-J2-PDC complex spheroids, growth % test/control
viability, T/C / %: 103
--
compound: CCc1c2c(nc3ccc(O)cc13)-c1cc3c(c(=O)n1C2)COC(=O)[C@]3(O)CC + Cc1cncc(-c2nc(NCCc3c[nH]c4ccccc34)c3ncn(C(C)C)c3n2)c1
targetOrSystem: 653999-131-R-J2-PDC complex spheroids, growth % test/control
viability, T/C / %: 28.1
--
compound: Nc1ncn(C2CC(O)C(CO)S2)c(=O)n1 (configuration not stated) + Cc1ccccc1N=Nc1ccc(NC(=O)c2ccnn2C)c(C)c1
targetOrSystem: 653999-131-R-J2-PDC complex spheroids, growth % test/control
viability, T/C / %: 109
--
compound: CC(C)CC(NC(=O)C(Cc1ccccc1)NC(=O)c1cnccn1)B(O)O (configuration not stated) + Cc1ccccc1N=Nc1ccc(NC(=O)c2ccnn2C)c(C)c1
targetOrSystem: 653999-131-R-J2-PDC complex spheroids, growth % test/control
viability, T/C / %: 27.4
--
compound: CCN(c1cc(-c2ccc(CN3CCOCC3)cc2)cc(C(=O)NCc2c(C)cc(C)[nH]c2=O)c1C)C1CCOCC1 + Cc1cncc(-c2nc(NCCc3c[nH]c4ccccc34)c3ncn(C(C)C)c3n2)c1
targetOrSystem: 653999-131-R-J2-PDC complex spheroids, growth % test/control
viability, T/C / %: 116

I would be grateful if you could share the reported viability, T/C for O=C(C=Cn1cnc(-c2cc(C(F)(F)F)cc(C(F)(F)F)c2)n1)NNc1cnccn1 + CC(CO)NC(=O)c1cc(-c2ccc(Cl)cc2)nn(-c2cnn(C)c2)c1=O .
103

Look at this compound and give its reported viability, T/C. CC(C)CC(NC(=O)C(Cc1ccccc1)NC(=O)c1cnccn1)B(O)O (configuration not stated) + Cc1cncc(-c2nc(NCCc3c[nH]c4ccccc34)c3ncn(C(C)C)c3n2)c1
24

###

# Tested on: 653999-131-R-J2-PDC complex spheroids, growth % test/control
# assayOverview: Anticancer human tumor 653999-131-R-J2-PDC cell line growth inhibition [AhR]; active means viability on the fitted dose curve at most 10% of control; inactive means the rest;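 further: spheroids exposed to agents for seven days; 100% = DMSO vehicle control viability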
# setupConditions: second compound 3.16 µM; first compound 1 µM
Parameter call: string, one of class 1 for active, class 0 for inactive

molecule: O=C(C=Cc1cccc(S(=O)(=O)Nc2ccccc2)c1)NO + Cc1cncc(-c2nc(NCCc3c[nH]c4ccccc34)c3ncn(C(C)C)c3n2)c1
cat: class 0

molecule: Nc1ncn(C2CC(O)C(CO)O2)c(=O)n1 (stereo not given) + Cc1ccccc1N=Nc1ccc(NC(=O)c2ccnn2C)c(C)c1
cat: class 0

molecule: COc1cc(Nc2ncc3c(n2)-c2ccc(Cl)cc2C(c2c(F)cccc2OC)=NC3)ccc1C(=O)O + CC(CO)NC(=O)c1cc(-c2ccc(Cl)cc2)nn(-c2cnn(C)c2)c1=O
cat: class 0

molecule: CC1COCCN1c1cc(C2(S(C)(=N)=O)CC2)nc(-c2ccnc3[nH]ccc23)n1 (stereo not given) + Cc1ccccc1N=Nc1ccc(NC(=O)c2ccnn2C)c(C)c1
cat: class 0

Fill in: this test's call for CC1COCCN1c1cc(C2(S(C)(=N)=O)CC2)nc(-c2ccnc3[nH]ccc23)n1 (stereo not given) + CC(CO)NC(=O)c1cc(-c2ccc(Cl)cc2)nn(-c2cnn(C)c2)c1=O is ___
class 0

Identify the outcome logged in this assay for the molecule shown: CC1(C)CCC(CN2CCN(c3ccc(C(=O)NS(=O)(=O)c4ccc(NCC5CCOCC5)c([N+](=O)[O-])c4)c(Oc4cnc5[nH]ccc5c4)c3)CC2)=C(c2ccc(Cl)cc2)C1 + Cc1cncc(-c2nc(NCCc3c[nH]c4ccccc34)c3ncn(C(C)C)c3n2)c1
class 0

###

# Test system: 653999-131-R-J2-PDC complex spheroids, growth % test/control
# assayOverview: Anticancer human tumor 653999-131-R-J2-PDC cell line growth inhibition [AhR];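 further: spheroids exposed to agents for seven days; 100% = DMSO vehicle control viability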
# setupConditions: second compound 1 µM; first compound 3 µM; stronger effect = lower value
In this section we review reported viability, T/C values for a set of compounds.
Respond with the bare value in %.

For orientation, consider the following solved cases.
compound: CCN(c1cc(-c2ccc(CN3CCOCC3)cc2)cc(C(=O)NCc2c(C)cc(C)[nH]c2=O)c1C)C1CCOCC1 + Cc1cncc(-c2nc(NCCc3c[nH]c4ccccc34)c3ncn(C(C)C)c3n2)c1
parameter: viability, T/C
testResult: 100
--
compound: O=C(C=Cn1cnc(-c2cc(C(F)(F)F)cc(C(F)(F)F)c2)n1)NNc1cnccn1 + Cc1ccccc1N=Nc1ccc(NC(=O)c2ccnn2C)c(C)c1
parameter: viability, T/C
testResult: 47.4
--
compound: O=C(C=Cn1cnc(-c2cc(C(F)(F)F)cc(C(F)(F)F)c2)n1)NNc1cnccn1 + Cc1cncc(-c2nc(NCCc3c[nH]c4ccccc34)c3ncn(C(C)C)c3n2)c1
parameter: viability, T/C
testResult: 42.1
--
compound: O=C(C=Cn1cnc(-c2cc(C(F)(F)F)cc(C(F)(F)F)c2)n1)NNc1cnccn1 + CC(CO)NC(=O)c1cc(-c2ccc(Cl)cc2)nn(-c2cnn(C)c2)c1=O
parameter: viability, T/C
testResult: 42.8
--
compound: CCN(c1cc(-c2ccc(CN3CCOCC3)cc2)cc(C(=O)NCc2c(C)cc(C)[nH]c2=O)c1C)C1CCOCC1 + CC(CO)NC(=O)c1cc(-c2ccc(Cl)cc2)nn(-c2cnn(C)c2)c1=O
parameter: viability, T/C
testResult: 102

Now, please, on to the next compound.
Which viability, T/C reading was recorded for the compound CCN(c1cc(-c2ccc(CN3CCOCC3)cc2)cc(C(=O)NCc2c(C)cc(C)[nH]c2=O)c1C)C1CCOCC1 + Cc1ccccc1N=Nc1ccc(NC(=O)c2ccnn2C)c(C)c1 ?
93

###

Below, each of the compounds is paired with its reported viability, T/C value.
# System: 653999-131-R-J2-PDC complex spheroids, growth % test/control
# assayOverview: Anticancer human tumor 653999-131-R-J2-PDC cell line growth inhibition [AhR];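 further: spheroids exposed to agents for seven days; 100% = DMSO vehicle control viability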
# setupConditions: second compound 10 µM; first compound 3.16 µM; stronger effect = lower value
Your answer should be a plain number; it is taken to be in %.

compound: CC1(C)CCC(CN2CCN(c3ccc(C(=O)NS(=O)(=O)c4ccc(NCC5CCOCC5)c([N+](=O)[O-])c4)c(Oc4cnc5[nH]ccc5c4)c3)CC2)=C(c2ccc(Cl)cc2)C1 + Cc1cncc(-c2nc(NCCc3c[nH]c4ccccc34)c3ncn(C(C)C)c3n2)c1
viability, T/C (%): 74.1

Form field: reported viability, T/C of O=C(c1cc(Cc2n[nH]c(=O)c3ccccc23)ccc1F)N1CCN(C(=O)C2CC2)CC1 + Cc1ccccc1N=Nc1ccc(NC(=O)c2ccnn2C)c(C)c1
84.4

What does the data say about its viability, T/C? Entry: COc1cc(C2c3cc4c(cc3C(OC3OC5COC(C)OC5C(O)C3O)C3COC(=O)C23)OCO4)cc(OC)c1O (stereo not given) + CC(CO)NC(=O)c1cc(-c2ccc(Cl)cc2)nn(-c2cnn(C)c2)c1=O
31.6

# viability, T/C lookup, item CC1COCCN1c1cc(C2(S(C)(=N)=O)CC2)nc(-c2ccnc3[nH]ccc23)n1 (stereo not given) + Cc1ccccc1N=Nc1ccc(NC(=O)c2ccnn2C)c(C)c1
63.3

Endpoint output: viability, T/C of CC1COCCN1c1cc(C2(S(C)(=N)=O)CC2)nc(-c2ccnc3[nH]ccc23)n1 (stereo not given) + CC(CO)NC(=O)c1cc(-c2ccc(Cl)cc2)nn(-c2cnn(C)c2)c1=O . Value?
51.5
